Observed Ki values for Protein kinase C alpha type (Homo sapiens) are listed in what follows.
Reply with the number and its unit after it.

- Compound: "CCCCCCCCCCCCC/C=C1/CC(CO)(COCC)OC1=O (configuration not stated)"
  Ki: "7.46 µM"

Problem: # return recorded Ki for input CCCCCCCCCCCCC/C=C1/COC(CO)(COC(C)=O)C1 (configuration not stated)
Solution: 7.58 µM
